B1: Serine/threonine-protein kinase A-Raf, residues 21 to 89; numbered along this chain, P10398 (parent)
chain: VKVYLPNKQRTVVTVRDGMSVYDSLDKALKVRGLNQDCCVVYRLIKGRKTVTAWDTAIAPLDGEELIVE

- Variants of: B1
- Assay method text: abundance fitness (aPCA) (normalised: wild type 0, dead -1); higher = more abundant; growth selection in yeast, the domain comes from the species named
- Setup conditions: Homo sapiens
Property: abundance fitness

INSERT INTO results (mutant_designation, property, measured) VALUES
  ('G18V', 'abundance fitness', -0.663),
  ('T52W', 'abundance fitness', -0.31),
  ('K30A', 'abundance fitness', -0.218),
  ('Y42W', 'abundance fitness', -0.366),
  ('V31E', 'abundance fitness', 0.066),
  ('L29E', 'abundance fitness', -0.947),
  ('D55I', 'abundance fitness', -0.452),
  ('R10A', 'abundance fitness', -0.15),
  ('R32C', 'abundance fitness', -0.162),
  ('L25V', 'abundance fitness', -0.54),
  ('E65P', 'abundance fitness', -0.26),
  ('R32V', 'abundance fitness', 0.019),
  ('Y22W', 'abundance fitness', -0.069),
  ('T52Q', 'abundance fitness', -0.317),
  ('K8L', 'abundance fitness', -0.363),
  ('V15D', 'abundance fitness', -0.33),
  ('T52I', 'abundance fitness', 0.141),
  ('Y4T', 'abundance fitness', -0.101),
  ('G18A', 'abundance fitness', -0.513),
  ('D55F', 'abundance fitness', -0.872),
  ('R48Q', 'abundance fitness', -0.094),
  ('L5W', 'abundance fitness', 0.113),
  ('D55C', 'abundance fitness', -0.52),
  ('L61C', 'abundance fitness', -0.367),
  ('S24Y', 'abundance fitness', -0.487),
  ('V3D', 'abundance fitness', -0.794),
  ('V31T', 'abundance fitness', 0.015),
  ('S24R', 'abundance fitness', -0.914),
  ('L44N', 'abundance fitness', -0.082),
  ('D55Y', 'abundance fitness', -0.648),
  ('D37Y', 'abundance fitness', -0.408),
  ('E65L', 'abundance fitness', -0.349),
  ('N35Y', 'abundance fitness', -0.019),
  ('V40L', 'abundance fitness', -0.259),
  ('V12C', 'abundance fitness', -0.304),
  ('V51L', 'abundance fitness', 0.026),
  ('T50R', 'abundance fitness', -0.173);
